# Lookup of reported inhibition keyed by entry
test: inhibitors of E-selectin induction by TNFa, primary screen, imaging, HUVEC, immunofluorescence, MLSMR starter and 10KST1 sets (AID 487); conditions: HUVEC TNFalpha-induced E-selectin immunofluorescence imaging, at 2 µM; active compounds read high;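 note: signal is fraction of cell area covered by stained E-selectin grains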

molecule | units | inhibition
COC(=O)C1(C#N)C(c2ccccc2)C1(C(=O)OC)C(=O)OC (stereo unspecified) | % | -21.2
CC1=C(C(=O)Nc2ccccc2)C(c2ccccn2)n2nc(CCCO)nc2N1 (stereo unspecified) | % | -8.5
COc1ccc(C(=O)Nn2c(C3CCC3)nc3ccccc3c2=O)c(OC)c1 | % | 14.7
CCc1nc2n[nH]c(N)c2c2c1CCCC2 | % | -224
Cn1c(Cn2cnc(Cl)c2Cl)nc2ccccc21 | % | -75.8
CCOC(=O)N1CCN(C(=O)c2ccc(CS(=O)(=O)c3c(Cl)cccc3Cl)o2)CC1 | % | -97.8
CCc1noc(C)c1C(=O)NCCc1ccc(OC)c(OC)c1 | % | 11.4
N#Cc1nc(COc2ccccc2F)oc1NCCCn1ccnc1 | % | -87.7
CCC(CC)n1[nH]c(=O)cc1N | % | -166
Cc1cc(C)n2c(SCCN3C(=O)c4ccccc4C3=O)nnc2n1 | % | -8.9
CC(=O)CCn1c(=O)n(CCC(C)=O)c(=O)n(CCC(C)=O)c1=O | % | -7
